Recorded Selectivity multiple of HCT116^MTAP WT GI50/ HCT116^MTAP Deletion GI50 values for a group of compounds are listed next.
tested on: HCT116 cells; test: Anti-proliferation assay on cells (Cell-Titer Glo, 10 days); type: cell-based; conditions: ratio of GI50 values
Please reply with the number alone, leaving off any unit.

CN(C(=O)C(=O)Nc1cnc(N)c2c1cnn2C)C1COCc2cc(-c3cnc(C4CC4)s3)ccc21 (stereo not drawn)
429
CN(C(=O)C(=O)Nc1cnc(N)c2c1cnn2C)C1COCc2cc(C#N)ccc21 (stereo not drawn)
354

Continue with the compound presented below.
INPUT: Value lookup for Selectivity multiple of HCT116^MTAP WT GI50/ HCT116^MTAP Deletion GI50; key = Cc1nn(C)c(C)c1-c1ccc2c(c1)COCC2N(C)C(=O)C(=O)Nc1cnc(N)c2c1cnn2C (stereo not drawn)
OUTPUT: 116

====

Recorded Selectivity multiple of HCT116^MTAP WT GI50/ HCT116^MTAP Deletion GI50 values for a group of compounds are listed next.
test system: HCT116 cells; experiment: Anti-proliferation assay on cells (Cell-Titer Glo, 10 days); assay type: cell-based; conditions: ratio of GI50 values
Please reply with the number alone, leaving off any unit.

Examples with answers:
CC(C)C(C)N(Cc1ccc(C(F)(F)F)cn1)C(=O)C(=O)Nc1cnc(N)c2c1cnn2C (stereo not shown) [Example 110-P1]
146
CN(C(=O)C(=O)Nc1cnc(N)c2c1cnn2C)C1COc2cc(-c3ccnn3C)ccc21 (stereo not shown) [Example 161]
169

INPUT: Value lookup for Selectivity multiple of HCT116^MTAP WT GI50/ HCT116^MTAP Deletion GI50; key = CN(C(=O)C(=O)Nc1cnc(N)c2c1cnn2C)C1COCc2cc(Cl)c(Cl)cc21 (single isomer, unassigned) [Example 163-P1]
OUTPUT: 94

INPUT: Value lookup for Selectivity multiple of HCT116^MTAP WT GI50/ HCT116^MTAP Deletion GI50; key = Cc1ncc(-c2ccc3c(c2)COCC3N(C)C(=O)C(=O)Nc2cnc(N)c3c2cnn3C)s1 (stereo not shown) [Example 181-P1]
OUTPUT: 247

INPUT: Value lookup for Selectivity multiple of HCT116^MTAP WT GI50/ HCT116^MTAP Deletion GI50; key = Cc1ncccc1-c1ccc2c(c1)COCC2N(C)C(=O)C(=O)Nc1cnc(N)c2c1cnn2C (stereo not shown)
OUTPUT: 128

INPUT: Value lookup for Selectivity multiple of HCT116^MTAP WT GI50/ HCT116^MTAP Deletion GI50; key = Cc1ncc(-c2ccc3c(c2)COCC3N(C)C(=O)C(=O)Nc2cnc(N)c3c2cnn3C)s1 (stereo not shown) [Example 135]
OUTPUT: 285

INPUT: Value lookup for Selectivity multiple of HCT116^MTAP WT GI50/ HCT116^MTAP Deletion GI50; key = CN(C(=O)C(=O)Nc1cnc(N)c2c1cnn2C)C1COc2cc(-c3cnc(C(F)(F)F)s3)ccc21 (stereo not shown)
OUTPUT: 337

====

Recorded Selectivity multiple of HCT116^MTAP WT GI50/ HCT116^MTAP Deletion GI50 values for a group of compounds are listed next.
system: HCT116 cells; assay: Anti-proliferation assay on cells (Cell-Titer Glo, 10 days); format: cell-based; settings: ratio of GI50 values
Please reply with the number alone, leaving off any unit.

Examples with answers:
Cn1ncc2c(NC(=O)C(=O)N(C3CC3)C3COCc4cc(C(F)(F)F)ccc43)cnc(N)c21 (stereo not shown) [Example 98]
106
CN(C(=O)C(=O)Nc1cnc(N)c2c1cnn2C)C1COCc2cc(C3=CCC(F)(F)CC3)ccc21 (stereo not shown) [Example 157]
193
CN(C(=O)C(=O)Nc1cnc(N)c2c1cnn2C)C1COCc2cc(Br)ccc21 (stereo not shown) [Example 94]
144

Continue with the compound presented below.
INPUT: Value lookup for Selectivity multiple of HCT116^MTAP WT GI50/ HCT116^MTAP Deletion GI50; key = CN(C(=O)C(=O)Nc1cnc(N)c2c1cnn2C)C1COCc2cc(C3CC3)ccc21 (stereo not shown) [Example 104]
OUTPUT: 144
